# assayNotes: AUC (0 to infinity) in Sprague-Dawley rat at 10 mg/kg, ip measured for 72 hrs by LC-MS/MS analysis
# Assay type: ADME, organism-based
# Design: dose 10 mg/kg, time 72 hrs, route ip
# conditionSummary: in vivo
propertyLabel: AUC(0-inf) (ng·h/mL)
Give the quantity in ng·h/mL, number only.

Form field: reported AUC(0-inf) of "O=C(Cc1ccccc1)Nc1nnc(NC2CCN(c3nnc(NC(=O)c4nccn4Cc4ccc(C(F)(F)F)cc4)s3)CC2)s1"
3490

====

# assayNotes: Metabolic stability in human liver microsomes assessed as parent compound remaining at 10 uM measured after 60 mins by LC-MS/MS analysis
# Type: ADME, Microsome
# conditionSummary: liver microsomes, read-out: Stability
propertyLabel: remaining at 1 h, 10 µM (%)
Give the quantity in %, number only.

Form field: reported remaining at 1 h, 10 µM of "Cc1ccc(Cn2cc(CCC(=O)Nc3ccc(CCCCc4nnc(NC(=O)Cc5ccccn5)s4)nn3)nn2)cc1"
35
